The reported numbers originate from patent US8742113B2.

System: MCM2 phosphorylation in COLO205 cells
Measurement notes: Inhibitory effect on MCM2 phosphorylation using cells (Western blot)
Assay type: cell-based
Condition notes: Homo sapiens, COLO 205, 0.1 μM test compound, 24 hours, class by percent phosphorylation of MCM2, read-out: Test Example 2 Inhibitory effect on MCM2 phosphorylation
# inhibition at 0.1 µM per entry

Worked cases, inhibition at 0.1 µM given:
mol=CCOC(=O)C1=C(Nc2ccccc2Cl)O/C(=C\c2c[nH]c3ncccc23)C1=O measurement_name="inhibition at 0.1 µM" recorded_value="20 to 50%"
mol=Cc1cc(F)ccc1NC1=CC(=O)/C(=C/c2c[nH]c3ncccc23)O1 measurement_name="inhibition at 0.1 µM" recorded_value="20 to 50%"
mol=CCOC(=O)C1=C(NN2CCN(CC(F)(F)F)CC2)O/C(=C\c2c[nH]c3ncccc23)C1=O measurement_name="inhibition at 0.1 µM" recorded_value="< 20%"

// next item, inhibition at 0.1 µM requested
Quick note, inhibition at 0.1 µM for "O=C1C=C(NC2CCCCCC2)O/C1=C\c1c[nH]c2ncccc12" landed at < 20%

* * *

Study system: human Cdc7/human ASK complex protein (Homo sapiens (Human))
Sequence (O00311 whole entry): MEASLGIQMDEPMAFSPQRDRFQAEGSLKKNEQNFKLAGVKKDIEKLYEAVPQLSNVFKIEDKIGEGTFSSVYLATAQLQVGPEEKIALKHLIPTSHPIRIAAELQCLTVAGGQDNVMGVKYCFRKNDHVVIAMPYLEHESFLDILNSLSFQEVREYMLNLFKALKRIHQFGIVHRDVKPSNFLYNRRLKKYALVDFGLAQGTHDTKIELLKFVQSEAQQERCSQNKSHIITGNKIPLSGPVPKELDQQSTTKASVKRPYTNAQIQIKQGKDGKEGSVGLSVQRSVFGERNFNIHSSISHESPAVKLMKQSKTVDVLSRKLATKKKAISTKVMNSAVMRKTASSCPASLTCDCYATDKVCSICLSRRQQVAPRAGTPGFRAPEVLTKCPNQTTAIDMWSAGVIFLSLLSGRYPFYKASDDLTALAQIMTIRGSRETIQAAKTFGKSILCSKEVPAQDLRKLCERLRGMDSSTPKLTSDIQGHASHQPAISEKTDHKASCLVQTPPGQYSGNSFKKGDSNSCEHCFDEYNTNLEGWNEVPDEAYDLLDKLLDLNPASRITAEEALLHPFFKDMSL
Sequence (Q9UBU7 whole entry partner): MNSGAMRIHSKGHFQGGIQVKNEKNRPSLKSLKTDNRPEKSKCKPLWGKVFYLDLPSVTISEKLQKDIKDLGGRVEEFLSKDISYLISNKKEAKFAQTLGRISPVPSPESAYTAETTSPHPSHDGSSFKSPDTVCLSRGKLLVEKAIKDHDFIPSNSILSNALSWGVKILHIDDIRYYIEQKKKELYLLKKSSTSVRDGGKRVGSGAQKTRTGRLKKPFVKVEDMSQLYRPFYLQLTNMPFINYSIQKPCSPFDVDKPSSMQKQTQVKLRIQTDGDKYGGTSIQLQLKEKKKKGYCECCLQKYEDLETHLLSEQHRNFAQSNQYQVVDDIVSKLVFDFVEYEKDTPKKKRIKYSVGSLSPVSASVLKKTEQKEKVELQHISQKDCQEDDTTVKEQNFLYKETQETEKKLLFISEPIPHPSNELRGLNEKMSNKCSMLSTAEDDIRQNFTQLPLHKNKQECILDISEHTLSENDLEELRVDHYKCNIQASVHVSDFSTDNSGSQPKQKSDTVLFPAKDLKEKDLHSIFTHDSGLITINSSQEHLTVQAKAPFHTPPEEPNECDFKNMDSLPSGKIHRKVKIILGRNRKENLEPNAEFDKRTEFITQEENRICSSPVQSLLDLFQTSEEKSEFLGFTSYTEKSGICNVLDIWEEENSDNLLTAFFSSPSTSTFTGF
Measurement notes: Inhibitory effect on Cdc7 protein kinase (MSA assay kit)
Assay type: biochemical
Condition notes: human Cdc7/human ASK complex, FITC-labeled MCM2 peptide substrate, reaction 5 hours at room temperature; read-out: Test Example 1 Cdc7 IC50 value
# pIC50 per entry
Recall that pIC50 is obtained by taking minus log10 of the concentration measured in molar.

molecule="COCCOC(=O)C1=C(Nc2ccccc2Cl)O/C(=C\\c2c[nH]c3ncccc23)C1=O [Example 173]" measurement_name=pIC50 recorded_value=8.52
molecule="CC(C)OC(=O)C1=C(NN2CCOCC2)O/C(=C\\c2c[nH]c3ncccc23)C1=O [Example 245]" measurement_name=pIC50 recorded_value=8.10
molecule="CCOC(=O)C1=C(N2CCc3ccccc3C2)O/C(=C\\c2c[nH]c3ncccc23)C1=O [Example 102]" measurement_name=pIC50 recorded_value=8.40
molecule="CCOC(=O)C1=C(N2CCc3ccc(OC)cc3C2)O/C(=C\\c2c[nH]c3ncccc23)C1=O [Example 244]" measurement_name=pIC50 recorded_value=8.40

// next item, pIC50 requested
Quick note, pIC50 for CCOC(=O)C1=C(Nc2ccc(OCCO)cc2F)OC(=Cc2c[nH]c3ncccc23)C1=O [Example 81] landed at 8.30

* * *

# pIC50 per entry
Study system: human Cdc7/human ASK complex protein (Homo sapiens (Human))
Measurement notes: Inhibitory effect on Cdc7 protein kinase (MSA assay kit)
Type: biochemical
Protocol: [Inhibitory Effect on Cdc7 Protein Kinase] Measurement of kinase activity was carried out using an MSA assay kit (QuickScout Screening Assist™ Kit, Carna Biosciences, Inc.). […] The IC50 value of a tested compound was calculated by regression analysis of the percent inhibition values versus the (logarithmic) concentrations of the tested compound.
Recall that pIC50 is obtained by taking minus log10 of the concentration measured in molar.

mol=O=C1C=C(Nc2ccc3[nH]ncc3c2)O/C1=C\c1c[nH]c2ncccc12 recorded_value=9.00

// next item, pIC50 requested
Entry "Cc1ccsc1CNC1=CC(=O)/C(=C/c2c[nH]c3ncccc23)O1" , human Cdc7/human ASK complex protein (Homo sapiens (Human)) data, pIC50 value: 9.00
